- EXPERIMENT SUMMARY: stimulators of nuclear beta-catenin in C2C12, primary screen, imaging, WNT3A-conditioned medium, mouse C2C12, NPC library (AID 1117326); note: reference of the scale not given here
- REPORTED CONDITIONS: at 10 µM, stronger effect = higher value
Each entry gets NO if its nuclear beta-catenin stimulation stays under 6%, and YES if its nuclear beta-catenin stimulation is 6% or above.

[
  {
    "COMPOUND": "O=C(O)c1cc(-c2ccccc2)nc2ccccc12",
    "QUALITATIVE LABEL": "NO"
  },
  {
    "COMPOUND": "Cc1cc(O)c2c(O)c3c(O)cccc3cc2c1",
    "QUALITATIVE LABEL": "YES"
  },
  {
    "COMPOUND": "COc1cc(C(C)=O)ccc1OCCCN1CCC(c2noc3cc(F)ccc23)CC1",
    "QUALITATIVE LABEL": "NO"
  },
  {
    "COMPOUND": "CC(C)OC(=O)c1cc2c(OCC(O)CNC(C)(C)C)cccc2[nH]1 (stereo unspecified)",
    "QUALITATIVE LABEL": "NO"
  },
  {
    "COMPOUND": "CC1(C)CCC(C)(C)c2cc(NC(=O)c3ccc(C(=O)O)cc3)ccc21",
    "QUALITATIVE LABEL": "YES"
  },
  {
    "COMPOUND": "C=CC(C)(O)CCC=C(C)CCC=C(C)C (stereo unspecified)",
    "QUALITATIVE LABEL": "NO"
  }
]

====

- EXPERIMENT SUMMARY: enhancers of glutamate uptake in motor neurons, MN-1 cell line (AID 1612);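 note: tested at 1 µM final; 0% = mean of DMSO vehicle wells on each plate; positive means more glutamate uptake than control and negative means less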
- REPORTED CONDITIONS: MN-1 motor neuron cells, stronger effect = higher value

[
  {
    "MOLECULE": "Clc1cc(Cl)c(OCC#CI)cc1Cl",
    "UNIT NAME": "%",
    "glutamate uptake change": 15.9
  },
  {
    "MOLECULE": "NCC(O)CC(=O)O (configuration not stated)",
    "UNIT NAME": "%",
    "glutamate uptake change": 9.66
  },
  {
    "MOLECULE": "NC(=NCc1ccccc1)NC(=O)c1nc(Cl)c(N)nc1N",
    "UNIT NAME": "%",
    "glutamate uptake change": 12.4
  },
  {
    "MOLECULE": "COc1cc(C)c2c(=O)cc(-c3ccccc3)oc2c1",
    "UNIT NAME": "%",
    "glutamate uptake change": -16.6
  },
  {
    "MOLECULE": "CCC(C)C(N)C(=O)N1CCCC1C(=O)NC(C(=O)O)C(C)CC (configuration not stated)",
    "UNIT NAME": "%",
    "glutamate uptake change": 11.9
  },
  {
    "MOLECULE": "CC(=O)N[C@@H](CC(C)C)C(=O)O",
    "UNIT NAME": "%",
    "glutamate uptake change": 2.89
  },
  {
    "MOLECULE": "COc1cc2c(c(OC)c1OC)-c1ccc(OC)c(=O)cc1[C@@H](NC(C)=O)CC2",
    "UNIT NAME": "%",
    "glutamate uptake change": -10.3
  },
  {
    "MOLECULE": "CC(C(=O)O)c1ccc(-c2ccccc2)c(F)c1 (configuration not stated)",
    "UNIT NAME": "%",
    "glutamate uptake change": 14.1
  },
  {
    "MOLECULE": "CN1C(CC(=O)c2ccccc2)CCCC1CC(O)c1ccccc1 (configuration not stated)",
    "UNIT NAME": "%",
    "glutamate uptake change": 3.53
  },
  {
    "MOLECULE": "c1coc(CNc2ncnc3nc[nH]c23)c1",
    "UNIT NAME": "%",
    "glutamate uptake change": -3.65
  },
  {
    "MOLECULE": "Cc1ccc(/C(=C\\CN2CCCC2)c2ccccn2)cc1",
    "UNIT NAME": "%",
    "glutamate uptake change": -7.2
  },
  {
    "MOLECULE": "O=C(O)CN(CC(=O)O)Cc1cc2c(-c3ccccc3C(=O)O)c3cc(CN(CC(=O)O)CC(=O)O)c(=O)cc-3oc2cc1O",
    "UNIT NAME": "%",
    "glutamate uptake change": 13.5
  }
]

====

log fold change Tl+ flux overview
- Tested on: R275C
- EXPERIMENT SUMMARY: modulators of BK channel variants, profiling panel, selectivity assay, cell-based, U2OS BacMam, thallium flux, beta subunits (AID 1259406);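 note: initial slope of Thallos dye fluorescence rise after thallium is added; log ratio against the mean of 0.3% DMSO vehicle wells on the same plate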
- REPORTED CONDITIONS: at 30 µM

[
  {
    "COMPOUND": "CC1=C(/C=C/C(C)=C/C=C/C(C)=C\\C(=O)O)C(C)(C)CCC1",
    "MEASURED ON": "R275C",
    "log fold change Tl+ flux": -0.0306
  },
  {
    "COMPOUND": "CON=C(C(=O)NC1C(=O)N2C(C(=O)O)=C(COC(C)=O)CSC12)c1csc(N)n1 (stereo not drawn)",
    "MEASURED ON": "R275C",
    "log fold change Tl+ flux": 0.0263
  },
  {
    "COMPOUND": "CC(=O)OCC(=O)[C@@]1(O)CC[C@H]2[C@@H]3CCC4=CC(=O)CC[C@]4(C)[C@H]3[C@@H](O)C[C@@]21C",
    "MEASURED ON": "R275C",
    "log fold change Tl+ flux": -0.0512
  },
  {
    "COMPOUND": "CC(C(=O)O)c1ccc(-c2ccccc2)c(F)c1 (stereo not drawn)",
    "MEASURED ON": "R275C",
    "log fold change Tl+ flux": -0.0123
  },
  {
    "COMPOUND": "CC1(C)SC2C(NC(=O)COc3ccccc3)C(=O)N2C1C(=O)O (stereo not drawn)",
    "MEASURED ON": "R275C",
    "log fold change Tl+ flux": 0.00635
  },
  {
    "COMPOUND": "CNCCCN1c2ccccc2CCc2ccccc21",
    "MEASURED ON": "R275C",
    "log fold change Tl+ flux": 0.0168
  },
  {
    "COMPOUND": "Cc1occc(=O)c1O",
    "MEASURED ON": "R275C",
    "log fold change Tl+ flux": -0.0195
  },
  {
    "COMPOUND": "COc1ccc(-c2oc3c(CC=C(C)C)c(O[C@@H]4O[C@H](CO)[C@@H](O)[C@H](O)[C@H]4O)cc(O)c3c(=O)c2O[C@@H]2O[C@@H](C)[C@H](O)[C@@H](O)[C@H]2O)cc1",
    "MEASURED ON": "R275C",
    "log fold change Tl+ flux": -0.04
  },
  {
    "COMPOUND": "COC(=O)[C@H](c1ccccc1Cl)N1CCc2sccc2C1",
    "MEASURED ON": "R275C",
    "log fold change Tl+ flux": 0.027
  },
  {
    "COMPOUND": "CCCC(=O)Nc1ccc(OCC(O)CNC(C)C)c(C(C)=O)c1 (stereo not drawn)",
    "MEASURED ON": "R275C",
    "log fold change Tl+ flux": -0.005
  },
  {
    "COMPOUND": "CN/C(=C\\[N+](=O)[O-])NCCSCc1ccc(CN(C)C)o1",
    "MEASURED ON": "R275C",
    "log fold change Tl+ flux": 0.017
  },
  {
    "COMPOUND": "CN1C(=O)CC[C@H]1c1cccnc1",
    "MEASURED ON": "R275C",
    "log fold change Tl+ flux": -0.00497
  },
  {
    "COMPOUND": "C[C@H](CCC(=O)O)[C@H]1CC[C@H]2[C@@H]3[C@@H](O)C[C@@H]4C[C@H](O)CC[C@]4(C)[C@H]3CC[C@]12C",
    "MEASURED ON": "R275C",
    "log fold change Tl+ flux": 0.0817
  },
  {
    "COMPOUND": "CN(C)C(=O)C(CCN1CCC(O)(c2ccc(Cl)cc2)CC1)(c1ccccc1)c1ccccc1",
    "MEASURED ON": "R275C",
    "log fold change Tl+ flux": -0.645
  },
  {
    "COMPOUND": "CC(C)NCC(O)COc1cccc2ccccc12 (stereo not drawn)",
    "MEASURED ON": "R275C",
    "log fold change Tl+ flux": -0.0109
  },
  {
    "COMPOUND": "C[N+]1(C)CCCC(OC(=O)C(O)(c2ccccc2)c2ccccc2)C1 (stereo not drawn)",
    "MEASURED ON": "R275C",
    "log fold change Tl+ flux": 0.00512
  },
  {
    "COMPOUND": "COc1c2occc2cc2ccc(=O)oc12",
    "MEASURED ON": "R275C",
    "log fold change Tl+ flux": 0.0168
  },
  {
    "COMPOUND": "COc1ccc2cc([C@H](C)C(=O)O)ccc2c1",
    "MEASURED ON": "R275C",
    "log fold change Tl+ flux": -0.0405
  }
]
